Values were extracted from the supplement of paper PMC10899765.

Tested on: MCF10A
Assay: percent viability (nuclei count relative to siNT); higher = more viable cells
Details: 20 nM; 72 h
Please map values of percent viability to classes as shown: zone 1: < 40%; zone 2: ≥ 40% and < 70%; zone 3: ≥ 70%

Enquiry: Assign a bin to CUAUACAACCUACUGCCUUCCC [hsa-let-7b-3p]
Return: zone 1

----------
Consider the following sequences and their measured 5+ nucleoli phenotype percent effect readings.
Tested on: MCF10A
Experiment: 5+ nucleoli phenotype percent effect (relative to siNT 0% and siKIF11 100%); higher = more cells with five or more nucleoli
Conditions: 20 nM; 72 h
Report as: number unit

CGGGGCCGUAGCACUGUCUGAGA [hsa-miR-128-1-5p]
21.2%
AGCCUGUGCUUGUCCCUGCAG [hsa-miR-6811-3p]
-10.2%

Enquiry: Identify 5+ nucleoli phenotype percent effect associated with the sequence AGGCGGAGACUUGGGCAAUUG [hsa-miR-25-5p]
Return: -48.5%

Enquiry: Identify 5+ nucleoli phenotype percent effect associated with the sequence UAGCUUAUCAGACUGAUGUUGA [hsa-miR-21-5p]
Return: 11.7%

Enquiry: Identify 5+ nucleoli phenotype percent effect associated with the sequence UCUCCCAACCCUUGUACCAGUG [hsa-miR-150-5p]
Return: 26.7%

Enquiry: Identify 5+ nucleoli phenotype percent effect associated with the sequence UCCUAAAUCUGAAAGUCCAAAA [hsa-miR-5009-3p]
Return: 46.2%

Enquiry: Identify 5+ nucleoli phenotype percent effect associated with the sequence UCCUCUUCUCCCUCCUCCCAG [hsa-miR-877-3p]
Return: -15.4%

Enquiry: Identify 5+ nucleoli phenotype percent effect associated with the sequence AUUCUAAGUGCCUUGGCC [hsa-miR-4263]
Return: -1.39%

Enquiry: Identify 5+ nucleoli phenotype percent effect associated with the sequence GGCUGGGUGCUCUUGUGCAGU [hsa-miR-5589-5p]
Return: -4.52%

----------
Test system: MCF10A
Assay: 5+ nucleoli phenotype percent effect (relative to siNT 0% and siKIF11 100%); higher = more cells with five or more nucleoli
Conditions: 20 nM; 72 h
Observable: 5+ nucleoli phenotype percent effect (%)
Provide only the numeric value, understood in %.

Here are 5 sequences together with their reported answers.
UAGGACUGUGCUUGGCACAUAG [hsa-miR-3169]
20
GAGCUUGGUCUGUAGCGGUU [hsa-miR-4453]
-29.1
UCUGGUAAGAGAUUUGGGCAUA [hsa-miR-4490]
46.4
AGGCAGGGGCUGGUGCUGGGCGGG [hsa-miR-4763-3p]
5.7
AGCCGCUCUUCUCCCUGCCCACA [hsa-miR-6743-3p]
35.5

# context switch: different sequence, same 5+ nucleoli phenotype percent effect
Enquiry: Identify 5+ nucleoli phenotype percent effect associated with the sequence UGAGGUAGGAGGUUGUAUAGUU [hsa-let-7e-5p]
Return: 48.7

----------
Consider the following sequences and their measured percent viability readings.
Tested on: MCF10A
Test: percent viability (nuclei count relative to siNT); higher = more viable cells
Details: 20 nM; 72 h
Provide only the numeric value, understood in %.

Here are 5 sequences together with their reported answers.
AGGCACGGUGUCAGCAGGC [hsa-miR-564]
67.8
UAACAGUCUACAGCCAUGGUCG [hsa-miR-132-3p]
112
GAAGGCGCUUCCCUUUAGAGCG [hsa-miR-525-3p]
42.5
UGAUUGUAGCCUUUUGGAGUAGA [hsa-miR-508-3p]
54.1
UUCUCAAGAGGGAGGCAAUCAU [hsa-miR-514b-5p]
43.1

Enquiry: Identify percent viability associated with the sequence UGGGGUGCCCACUCCGCAAGUU [hsa-miR-4664-5p]
Return: 9.8

Enquiry: Identify percent viability associated with the sequence UAGACGUGGUGAAGGAUUGAGUG [hsa-miR-6863]
Return: 47.3
